Provide the reported intrinsic clearance of each item.
Assay: Intrinsic clearance in human liver microsomes assessed as per gram protein at 0.1 umol/L in presence of NADPH by LC/MS/MS method
Format: ADME, microsome
Conditions: 0.1 µM

substance_smiles=CC(C)(N)[C@H](NC(=O)c1ccc(C#CC#CC2CC2)c(F)c1)C(=O)NO result_value="0 mL/min/g"
substance_smiles=C[C@@H](O)[C@H](NC(=O)c1ccc(C#CC#CC2CC2)cc1F)C(=O)NO result_value="11 mL/min/g"
substance_smiles=C[C@@H](O)[C@H](NC(=O)c1ccc(C#CC#CC2CC2)c(F)c1)C(=O)NO result_value="1 mL/min/g"
substance_smiles=CC(C)(N)[C@H](NC(=O)c1ccc(C#CC#CC2CC2)cc1)C(=O)NO result_value="1 mL/min/g"
substance_smiles=CC(C)(N)[C@H](NC(=O)c1ccc(C#CC#CC2CC2)cc1F)C(=O)NO result_value="0 mL/min/g"
substance_smiles=CC(C)(N)[C@H](NC(=O)c1ccc(C#CC#CC2CC2)cc1O)C(=O)NO result_value="0 mL/min/g"
substance_smiles=C[C@@H](O)[C@H](NC(=O)c1ccc(C#CC#CC2CC2)cc1)C(=O)NO result_value="3 mL/min/g"

### Prompt // returns reported intrinsic clearance for input `C[C@@H](O)[C@H](NC(=O)c1ccc(C#CC#CC2CC2)cc1O)C(=O)NO`
### Response 8 mL/min/g

###

Provide the reported MIC of each item.
Molecular target: UDP-3-O-acyl-N-acetylglucosamine deacetylase (Escherichia coli K-12) (UniProt P0A725)
Sequence (whole entry): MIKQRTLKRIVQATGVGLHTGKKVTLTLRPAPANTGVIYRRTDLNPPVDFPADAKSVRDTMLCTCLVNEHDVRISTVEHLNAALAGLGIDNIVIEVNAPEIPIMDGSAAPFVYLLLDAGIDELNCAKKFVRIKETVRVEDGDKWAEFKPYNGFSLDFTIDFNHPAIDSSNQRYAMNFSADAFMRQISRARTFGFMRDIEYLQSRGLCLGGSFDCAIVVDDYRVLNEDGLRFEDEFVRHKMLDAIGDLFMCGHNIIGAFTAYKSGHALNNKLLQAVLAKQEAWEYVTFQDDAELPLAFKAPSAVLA
Test: Inhibition of LpxC in Escherichia coli AB1157 assessed as reduction in microbial growth incubated for 22 hrs by MTT assay
Answers are plain numbers, in µg/mL.

Would you please look over these solved cases?
compound=CC(C)(N)[C@H](NC(=O)c1ccc(C#CC#CC2CC2)cc1)C(=O)NO measured_property=MIC result_value=0.039
compound=C[C@@H](O)[C@H](NC(=O)c1ccc(C#CC#CC2CC2)cc1OC(F)F)C(=O)NO measured_property=MIC result_value=0.156
compound=C[C@@H](O)[C@H](NS(=O)(=O)c1ccc(C#CC#CC2CC2)cc1)C(=O)NO measured_property=MIC result_value=40
compound=Cc1cc(C#CC#CC2CC2)ccc1C(=O)N[C@H](C(=O)NO)[C@@H](C)O measured_property=MIC result_value=0.156

For every listed record, write down its MIC.
1. C[C@@H](O)[C@H](NC(=O)c1ccc(C#CC#CC2CC2)cc1C#N)C(=O)NO
2. CC(C)(N)[C@H](NC(=O)c1ccc(C#CC#CC2CC2)cc1F)C(=O)NO
3. C[C@@H](O)[C@H](NC(=O)c1ccc(C#CC#CC2CC2)cc1N)C(=O)NO
4. C[C@@H](O)[C@H](NC(=O)c1ccc(C#CC#CC2CC2)cc1)C(=O)NO
5. C[C@@H](O)[C@H](NC(=O)c1ccc(C#CC#CC2CC2)cc1Cl)C(=O)NO
6. C[C@@H](O)[C@H](NC(=O)c1ccc(C#CC#CC2CC2)cn1)C(=O)NO
7. COc1cc(C#CC#CC2CC2)ccc1C(=O)N[C@H](C(=O)NO)[C@@H](C)O
8. CC(CCc1ccc(-c2ccccc2)cc1)(C(=O)NO)S(C)(=O)=O (racemic)

### Response
1: 80; 2: 0.078; 3: 0.04; 4: 0.024; 5: 0.192; 6: 1.25; 7: 1.25; 8: 1

For every listed record, write down its MIC.
1. CC(C)(N)[C@H](NC(=O)c1ccc(C#CC#CC2CC2)c(F)c1)C(=O)NO
2. C[C@@H](O)[C@H](NC(=O)c1ccc(C#CC#CC2CC2)c(F)c1)C(=O)NO

### Response
1. 0.019
2. 0.4

###

Provide the reported half-life at 0.1 µM of each item.
Test: Elimination half life in human liver microsomes at 0.1 umol/L in presence of NADPH by LC/MS/MS method
Assay type: ADME, microsome
Conditions: read-out: beta t1/2
One number for each entry, in h.

substance_smiles=C[C@@H](O)[C@H](NC(=O)c1ccc(C#CC#CC2CC2)cc1O)C(=O)NO result_value=4.55

For every listed record, write down its half-life at 0.1 µM.
1. CC(C)(N)[C@H](NC(=O)c1ccc(C#CC#CC2CC2)cc1)C(=O)NO
2. C[C@@H](O)[C@H](NC(=O)c1ccc(C#CC#CC2CC2)c(F)c1)C(=O)NO
3. C[C@@H](O)[C@H](NC(=O)c1ccc(C#CC#CC2CC2)cc1F)C(=O)NO
4. C[C@@H](O)[C@H](NC(=O)c1ccc(C#CC#CC2CC2)cc1)C(=O)NO

### Response
1. 56.9
2. 44.4
3. 3.33
4. 10.6

###

Tested on: Pseudomonas aeruginosa PA14
Assay: Inhibition of LpxC in Pseudomonas aeruginosa PA14 assessed as reduction in microbial growth incubated for 22 hrs by MTT assay
MEASURED_PROPERTY: MIC

compound=COc1cc(C#CC#CC2CC2)ccc1C(=O)N[C@H](C(=O)NO)[C@@H](C)O measured_property=MIC result_value="10 µg/mL"
compound=C[C@@H](O)[C@H](NC(=O)c1ccc(C#CC#CC2CC2)c(F)c1)C(=O)NO measured_property=MIC result_value="0.63 µg/mL"

For every listed record, write down its MIC.
1. C[C@@H](O)[C@H](NC(=O)c1ccc(C#CC#CC2CC2)cc1Cl)C(=O)NO
2. CC(CCc1ccc(-c2ccccc2)cc1)(C(=O)NO)S(C)(=O)=O (racemic)
3. Cc1cc(C#CC#CC2CC2)ccc1C(=O)N[C@H](C(=O)NO)[C@@H](C)O
4. C[C@@H](O)[C@H](NS(=O)(=O)c1ccc(C#CC#CC2CC2)cc1)C(=O)NO
5. C[C@@H](O)[C@H](NC(=O)c1ccc(C#CC#CC2CC2)cc1OC(F)F)C(=O)NO
6. C[C@@H](O)[C@H](NC(=O)c1ccc(C#CC#CC2CC2)cc1O)C(=O)NO

### Response
1: 6.25 µg/mL; 2: 0.31 µg/mL; 3: 5 µg/mL; 4: 50 µg/mL; 5: 10 µg/mL; 6: 0.625 µg/mL

For every listed record, write down its MIC.
1. C[C@@H](O)[C@H](NC(=O)[C@@H]1CN(c2ccc(C#Cc3ccccc3)cc2)C(=O)O1)C(=O)NO
2. CC(C)(N)[C@H](NC(=O)c1ccc(C#CC#CC2CC2)cc1)C(=O)NO
3. C[C@@H](O)[C@H](NC(=O)c1ccc(C#CC#CC2CC2)cc1C#N)C(=O)NO
4. C[C@@H](O)[C@H](NC(=O)[C@H]1CN(c2ccc(C#Cc3ccccc3)cc2)C(=O)O1)C(=O)NO
5. C[C@@H](O)[C@H](NC(=O)c1ccc(C#CC#CC2CC2)cc1)C(=O)NO
6. C[C@@H](O)[C@H](NC(=O)c1ccc(C#CC#CC2CC2)cc1N)C(=O)NO
7. C[C@@H](O)[C@H](NC(=O)c1ccc(C#CC#CC2CC2)cn1)C(=O)NO

### Response
1: > 256 µg/mL; 2: 0.078 µg/mL; 3: 40 µg/mL; 4: > 256 µg/mL; 5: 0.19 µg/mL; 6: 0.625 µg/mL; 7: 10 µg/mL

For every listed record, write down its MIC.
1. C[C@@H](O)[C@H](NC(=O)[C@H]1CN(c2ccc(-c3ccccc3)cc2)C(=O)O1)C(=O)NO
2. C[C@@H](O)[C@@H](CN(O)C=O)NC(=O)c1ccc(C#CC#CC2CC2)cc1
3. CC(CCc1ccc(-c2ccccc2)cc1)(C(=O)Nc1ccccc1N)S(C)(=O)=O (centres undefined)
4. CC(C)(N)[C@H](NC(=O)c1ccc(C#CC#CC2CC2)cc1F)C(=O)NO

### Response
1. > 256 µg/mL
2. > 256 µg/mL
3. > 256 µg/mL
4. 0.31 µg/mL

###

Molecular target: UDP-3-O-acyl-N-acetylglucosamine deacetylase (Escherichia coli K-12) (UniProt P0A725)
Assay: Inhibition of LpxC in Escherichia coli DH5[alpha] assessed as reduction in microbial growth incubated for 22 hrs by MTT assay
Provide the reported MIC of each item.

Would you please look over these solved cases?
substance_smiles=C[C@@H](O)[C@H](NC(=O)[C@@H]1CN(c2ccc(-c3ccccc3)cc2)C(=O)O1)C(=O)NO result_value="> 256 µg/mL"
substance_smiles=C[C@@H](O)[C@H](NC(=O)c1ccc(C#CC#CC2CC2)cn1)C(=O)NO result_value="0.625 µg/mL"
substance_smiles=C[C@@H](O)[C@H](NC(=O)c1ccc(C#CC#CC2CC2)cc1F)C(=O)NO result_value="0.31 µg/mL"
substance_smiles=C[C@@H](O)[C@H](NC(=O)c1ccc(C#CC#CC2CC2)cc1N)C(=O)NO result_value="0.04 µg/mL"
substance_smiles=COc1cc(C#CC#CC2CC2)ccc1C(=O)N[C@H](C(=O)NO)[C@@H](C)O result_value="2.5 µg/mL"

Next item in the queue.
### Prompt // returns reported MIC for input `C[C@@H](O)[C@@H](CN(O)C=O)NC(=O)c1ccc(C#CC#CC2CC2)cc1`
### Response > 256 µg/mL
